Target: SARS-CoV-2 spike RBD (WT) (Severe acute respiratory syndrome …, UniProt P0DTC2)
Experiment: ELISA
Design: unit not given here
endpoint label: binding score
API note: the answer field is a bare number with no unit suffix.

{"binder": "D053 (antibody, V domains shown) VH: EVQLVESGGGLVKPGGSLRLSCAASGFTFSNAWMSWVRQAPGKGLEWIGRIKSNTDGGTIDYAAPVKGRFTISRDDSKNTLYLQMNSLKTEDTAVYYCTTDGAFFVVADPFDYWGQGTLVTVSS VL: DIQMTQSPSSLSASVGDRVTITCRASQSMTNYLNWYQQKPGKAPELLIYGVSSLQSGVPSRFSGSGSGTDFTLTISSLQPEDFATYYCQQSYRTPRTFGQGTKVEIK", "binding score": 3050}
{"binder": "D164 (antibody, V domains shown) VH: QVQLVQSGAEVKKPGASVKVSCKASGYTFTSYYMHWVRQAPGQGLEWMGIINPSGGSTSYAQKFQGRVTMTRDTSTSTVYMELSSLRSEDTAVYYCARGGIVPAATENFDYWGQGTLVTVSS VL: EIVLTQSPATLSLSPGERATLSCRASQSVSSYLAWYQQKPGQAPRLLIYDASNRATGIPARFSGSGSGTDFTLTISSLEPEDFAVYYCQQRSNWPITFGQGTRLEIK", "binding score": 63.2}
{"binder": "D105 (antibody, V domains shown) VH: QVQLQQWGAGLLKPSETLSLTCAVFGGSFSGYYWSWIRQPPGKGLEWIGEINHSGSTNYNPSLKSRVTLSVDTSKNQFSLELSSVTAADTAVYYCARVGPILFDYWGQGTLVTVSS VL: QFVLTQPPSVSAAPGQKVTISCSGSSSNIGNNYVSWFQQLPGTAPKLLIYDNNMRPSRIPDRFSGSKSGTSATLGITGLQTGDEADYYCGTWDSSLSSVVFGGGTKLTVL", "binding score": 1340}

Could you now look at the following binder, please?
binding score recorded for this binder, D137 (antibody, V domains shown) VH: QVQLVQSGAEVKKPGASVKVSCKASGYTFTSYDINWVRQATGQGLEWMGWMNPNSGNTGYAQKFQGRVTMTRNTSISTAYMELSSLRSEDTAVYYCARAYCSGGSCYSQPWGQGTLVTVSS VL: QSALTQPPSASGSPGQSVTISCTGTSSDVGGYNYVSWYQQHPGKAPKLMIYEVSKRPSGVPDRFSGSKSGNTASLTVSGLQAEDEADYYCSSYAGSNNWVFGGGTKLTVL , is 395
